B1: library; a variant is named by its letters at N, in order (parent)
chain: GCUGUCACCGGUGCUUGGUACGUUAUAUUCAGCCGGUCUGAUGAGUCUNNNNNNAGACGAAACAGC

Variants of: B1
Assay Procedure: normalized RNA/DNA level without ligand (relative to sTRSVctl = 100) (log10 (% of sTRSVctl)); HEK293T overexpressing SLC46A1; higher = less ribozyme self-cleavage, higher mRNA level
Measurement Conditions: without (6R,S)-folinic acid; ligand present: no
Collected normalized RNA/DNA level without ligand (log10) values appear next to each entry.
Readout Name: normalized RNA/DNA level without ligand (log10)

Variant Id | Numeric Value
GUGCUU | 2.04
ACCUAU | 2.02
CAACUA | 2.01
CUAAUG | 2.03
GACCCU | 2.07
UCAAAG | 1.82
GCGUGG | 1.97
UGACUC | 2.07
UUCAGA | 1.98
AAGACA | 1.99
UUGGCC | 2.05
AGCUGU | 2.04
GUAGUC | 2.04
UUGCGG | 1.96
GCUGCG | 2
AUUUUA | 1.97
CGUAUA | 1.93
UCUAAA | 1.98
AAGAUG | 1.89
GCACCU | 2.03
AAUUAU | 1.98
AUCUCC | 2.04
CUUUCU | 2
UUUUUG | 1.86
CGGUGU | 1.99
GGGCCU | 2.1
GAUAUC | 2.02
ACCACG | 2.02
AUUUUU | 1.99
GAGCUC | 2.07
CCAACG | 2.02
UUAUAU | 1.94
GAAGAU | 1.97
GACGUA | 2
GUGUCC | 1.97
UCGAGG | 1.94
GGCACU | 2.08
GUCUUU | 2.05
CCCCAC | 2.04
CGCCUU | 2.02
GUUAAU | 1.97
CAGGGC | 1.99
UGCUCC | 2.06
AAGACC | 2.03
CGAGGU | 2.02
GUAGUG | 1.86
